Target: UniProtKB Q06187
Assay: In Vitro BTK Kinase Assay: BTK-POLYGAT-LS ASSAY
Assay type: biochemical
Settings: ATP 10 μM, polyGAT 100 nM, BTK 0.25 nM, 30 minutes
pIC50: −log10 of the molar value.
Would you kindly list pIC50 for each of these compounds?

Qu. Please list pIC50 recorded for the compound C[C@@H](NC(=O)c1nc(C(C)(C)C)no1)c1ccc(-c2ccnc(NC(=O)C3CC3)c2)c(F)c1Cl
Ans. ≥ 9.00

Qu. Please list pIC50 recorded for the compound CC(C)(C)c1noc(C(=O)N[C@@H]2CCN(CC(F)(F)F)Cc3cc(-c4ccnc(NC(=O)C5CC5)c4)ccc32)n1
Ans. ≥ 9.00

Qu. Please list pIC50 recorded for the compound C[C@@H](NC(=O)c1noc(C(C)(C)C)n1)c1ccc(-c2ccnc(NC(=O)C3CC3)c2)c(F)c1Cl
Ans. ≥ 9.00

Qu. Please list pIC50 recorded for the compound CC(C)(C)c1noc(C(=O)NCc2ccc(-c3ccnc(NC(=O)C4CC4)c3)c(F)c2Cl)n1
Ans. ≥ 9.00

Qu. Please list pIC50 recorded for the compound CCc1cc(-c2ccnc(NC(=O)C3CC3)c2)ccc1CNC(=O)c1noc(C(C)(C)C)n1
Ans. ≥ 9.00

Qu. Please list pIC50 recorded for the compound Cc1cc(-c2ccnc(NC(=O)C3C4COCC43)c2)ccc1CNC(=O)c1noc(C(C)(C)C)n1 (stereo not shown)
Ans. 8.00 to 9.00

Qu. Please list pIC50 recorded for the compound Cc1cc(-c2ccnc(NC(=O)C3CC3)c2)ccc1CNC(=O)c1ncc(C(C)(C)C)o1
Ans. 8.00 to 9.00

====

Biological target: BTK (Homo sapiens (Human))
Sequence (Q06187 whole entry): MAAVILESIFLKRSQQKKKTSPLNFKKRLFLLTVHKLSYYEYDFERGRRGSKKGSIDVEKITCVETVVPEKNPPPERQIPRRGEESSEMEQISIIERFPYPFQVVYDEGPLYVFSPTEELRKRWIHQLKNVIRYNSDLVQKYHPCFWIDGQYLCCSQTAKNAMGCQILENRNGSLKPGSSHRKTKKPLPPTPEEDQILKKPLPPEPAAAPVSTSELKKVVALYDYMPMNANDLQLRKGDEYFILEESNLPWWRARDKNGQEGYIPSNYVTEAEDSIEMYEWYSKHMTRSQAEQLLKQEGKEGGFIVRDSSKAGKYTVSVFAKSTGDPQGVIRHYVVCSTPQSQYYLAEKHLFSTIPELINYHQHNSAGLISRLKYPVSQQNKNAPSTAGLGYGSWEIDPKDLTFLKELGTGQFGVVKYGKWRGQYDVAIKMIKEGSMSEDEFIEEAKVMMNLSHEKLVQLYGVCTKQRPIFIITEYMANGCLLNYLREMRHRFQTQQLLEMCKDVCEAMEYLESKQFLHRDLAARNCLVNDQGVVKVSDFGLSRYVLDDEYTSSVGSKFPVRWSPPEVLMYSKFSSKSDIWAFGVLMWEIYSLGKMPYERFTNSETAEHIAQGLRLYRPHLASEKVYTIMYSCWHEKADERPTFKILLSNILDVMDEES
Test: In Vitro BTK Kinase Assay: BTK-POLYGAT-LS ASSAY
Type: biochemical
Conditions: ATP 10 μM, polyGAT 100 nM, BTK 0.25 nM, 30 minutes
pIC50: −log10 of the molar value.
OBSERVED_PROPERTY: pIC50

Qu. Given Cc1cc(-c2ccnc(NC(=O)C3CC3)c2F)ccc1CNC(=O)c1noc(C(C)(C)C)n1 , report its pIC50 on BTK (Homo sapiens (Human)).
Ans. 8.00 to 9.00

Qu. Given C[C@@H](NC(=O)c1nc(C(C)(C)C)no1)c1cc(F)c(-c2ccnc(NC(=O)C3CC3)c2)cc1Cl , report its pIC50 on BTK (Homo sapiens (Human)).
Ans. ≥ 9.00

Qu. Given CC(C)(C)c1noc(C(=O)N[C@@H]2CCCCc3cc(-c4ccnc(NC(=O)[C@@H]5[C@@H]6COC[C@@H]65)c4)ccc32)n1 , report its pIC50 on BTK (Homo sapiens (Human)).
Ans. ≥ 9.00

Qu. Given CC(C)(C)c1nc(C(=O)NCc2ccc(-c3ccnc(NC(=O)C4CC4)c3)cc2C2CC2)no1 , report its pIC50 on BTK (Homo sapiens (Human)).
Ans. ≥ 9.00

Qu. Given CC1(c2nc(C(=O)NCc3ccc(-c4ccnc(NC(=O)C5CC5)c4)c(F)c3Cl)no2)CC1 , report its pIC50 on BTK (Homo sapiens (Human)).
Ans. ≥ 9.00

Qu. Given Cc1cc(-c2ccnc(NC(=O)C3CC3)c2)ccc1CNC(=O)c1cnc(C(C)(C)C)s1 , report its pIC50 on BTK (Homo sapiens (Human)).
Ans. 8.00 to 9.00

Qu. Given CC(C)(C)c1noc(C(=O)N[C@@H]2CCCCc3cc(-c4ccnc(NC(=O)C5CC5)c4)ccc32)n1 , report its pIC50 on BTK (Homo sapiens (Human)).
Ans. ≥ 9.00

Qu. Given Cc1c(CNC(=O)c2nc(C(C)(C)C)no2)ccc(-c2ccnc(NC(=O)C3CC3)c2)c1F , report its pIC50 on BTK (Homo sapiens (Human)).
Ans. ≥ 9.00

Qu. Given Cc1cc(-c2cc(NC(=O)C3CC3)ncc2F)ccc1CNC(=O)c1noc(C(C)(C)C)n1 , report its pIC50 on BTK (Homo sapiens (Human)).
Ans. ≥ 9.00

Qu. Given CC(C)(C)c1noc(C(=O)NCc2ccc(-c3ccnc(NC(=O)C4CC4)c3)c(F)c2C2CC2)n1 , report its pIC50 on BTK (Homo sapiens (Human)).
Ans. ≥ 9.00

Qu. Given CC(C)(C)c1nc(C(=O)NCc2cc(F)c(-c3ccnc(NC(=O)C4CC4)c3)cc2Cl)no1 , report its pIC50 on BTK (Homo sapiens (Human)).
Ans. ≥ 9.00

Qu. Given C[C@@H](NC(=O)c1noc(C(C)(C)C)n1)c1ccc(-c2ccnc(NC(=O)C3CC3)c2)cc1OC(F)(F)F , report its pIC50 on BTK (Homo sapiens (Human)).
Ans. 8.00 to 9.00

Qu. Given C[C@@H](NC(=O)c1noc(C(C)(C)C)n1)c1ccc(-c2ccnc(NC(=O)C3CC3)c2)cc1C(F)(F)F , report its pIC50 on BTK (Homo sapiens (Human)).
Ans. ≥ 9.00

Qu. Given CC(C)(C)c1noc(C(=O)NCc2ccc(-c3ccnc(NC(=O)C4CC4)c3)c(F)c2C(F)(F)F)n1 , report its pIC50 on BTK (Homo sapiens (Human)).
Ans. ≥ 9.00

Qu. Given C[C@@H](NC(=O)c1nc(C(C)(C)C)no1)c1ccc(-c2ccnc(NC(=O)C3CC3)c2)cc1Cl , report its pIC50 on BTK (Homo sapiens (Human)).
Ans. ≥ 9.00

====

Target: BTK (Homo sapiens (Human))
Test: In Vitro BTK Kinase Assay: BTK-POLYGAT-LS ASSAY
Assay type: biochemical
Details: ATP 10 μM, polyGAT 100 nM, BTK 0.25 nM, 30 minutes
OBSERVED_PROPERTY: IC50

Qu. Given CC(C)(C)c1nc(C(=O)NCc2ccc(-c3ccnc(NC(=O)C4CC4)c3)cc2C2CCC2)no1 [Compound 88] , report its IC50 on BTK (Homo sapiens (Human)).
Ans. ≤ 1 nM

Qu. Given CC(C)(C)c1noc(C(=O)NCc2ccc(-c3ccnc(NC(=O)C4CC4)c3)cc2C(F)(F)F)n1 [Compound 17] , report its IC50 on BTK (Homo sapiens (Human)).
Ans. ≤ 1 nM

Qu. Given Cc1cc(-c2cc(NC(=O)C3CC3)ncc2F)ccc1[C@@H](C)NC(=O)c1noc(C(C)(C)C)n1 [Compound 20] , report its IC50 on BTK (Homo sapiens (Human)).
Ans. ≤ 1 nM

Qu. Given CC(C)(C)c1nc(C(=O)N[C@@H]2CCCCc3cc(-c4ccnc(NC(=O)C5CC5)c4)ccc32)no1 [Compound 67] , report its IC50 on BTK (Homo sapiens (Human)).
Ans. ≤ 1 nM

Qu. Given Cc1c(-c2ccnc(NC(=O)C3CC3)c2)ccc(CNC(=O)c2nc(C(C)(C)C)no2)c1F [Compound 100] , report its IC50 on BTK (Homo sapiens (Human)).
Ans. ≤ 1 nM

Qu. Given Cc1cc(-c2ccnc(NC(=O)C3CC3)c2)ccc1CNC(=O)c1nc(C(C)(C)CF)no1 [Compound 39] , report its IC50 on BTK (Homo sapiens (Human)).
Ans. ≤ 1 nM

Qu. Given CC(C)(C)c1noc(C(=O)NC2CCCOc3cc(-c4ccnc(NC(=O)C5CC5)c4)ccc32)n1 (centres unmarked) [Compound 55] , report its IC50 on BTK (Homo sapiens (Human)).
Ans. ≤ 1 nM

Qu. Given CC(C)c1cc(-c2ccnc(NC(=O)C3CC3)c2)ccc1CNC(=O)c1noc(C(C)(C)C)n1 [Compound 56] , report its IC50 on BTK (Homo sapiens (Human)).
Ans. 1 to 10 nM

Qu. Given Cc1c(CNC(=O)c2noc(C(C)(C)C)n2)ccc(-c2cc(NC(=O)C3CC3)ncc2F)c1F [Compound 57] , report its IC50 on BTK (Homo sapiens (Human)).
Ans. ≤ 1 nM

Qu. Given CC(C)(C)c1nc(C(=O)N[C@@H]2CCCCc3cc(-c4ccnc(NC(=O)C5CC5)c4)ccc32)co1 [Compound 68] , report its IC50 on BTK (Homo sapiens (Human)).
Ans. ≤ 1 nM

Qu. Given Cc1cc(-c2ccnc(NC(=O)C3CC3)c2)c(F)cc1[C@@H](C)NC(=O)c1noc(C(C)(C)C)n1 [Compound 85] , report its IC50 on BTK (Homo sapiens (Human)).
Ans. ≤ 1 nM

Qu. Given Cc1cc(-c2ccnc(NC(=O)[C@@H]3C[C@@H]3F)c2)ccc1CNC(=O)c1noc(C(C)(C)C)n1 (single isomer, unassigned) [Compound 3] , report its IC50 on BTK (Homo sapiens (Human)).
Ans. ≤ 1 nM

Qu. Given Cc1c([C@@H](C)NC(=O)c2nc(C(C)(C)C)no2)ccc(-c2ccnc(NC(=O)C3CC3)c2)c1F [Compound 66] , report its IC50 on BTK (Homo sapiens (Human)).
Ans. ≤ 1 nM

Qu. Given CC(C)(C)c1noc(C(=O)N[C@@H]2CCCCc3cc(-c4ccnc(NC(=O)[C@@H]5CC5(C)C)c4)ccc32)n1 [Compound 45] , report its IC50 on BTK (Homo sapiens (Human)).
Ans. 1 to 10 nM

Qu. Given Cc1cc(-c2ccnc(NC(=O)C3CC3)c2)ccc1CNC(=O)c1nnc(C(C)(C)C)o1 [Compound 90] , report its IC50 on BTK (Homo sapiens (Human)).
Ans. 1 to 10 nM

Qu. Given CC(C)(C)c1nc(C(=O)NCc2ccc(-c3ccnc(NC(=O)C4CC4)c3)c(F)c2Cl)no1 [Compound 14] , report its IC50 on BTK (Homo sapiens (Human)).
Ans. ≤ 1 nM

Qu. Given CC(C)(C)n1cc(F)c(C(=O)NCc2ccc(-c3ccnc(NC(=O)C4CC4)c3)c(F)c2C2CC2)n1 [Compound 29] , report its IC50 on BTK (Homo sapiens (Human)).
Ans. 1 to 10 nM
